System: BT-549
Experiment: NCI tumour cell line growth inhibition, 48 h
Active and inactive are the calls of the source. No stated cut-off is given here; in the data, active = GI50 up to about 1.1 µM and inactive = higher.
endpoint_name: GI50

In [3]: df
Out[3]:
                                   compound      endpoint_result
0                CCCNC(=O)Cn1c(C)cc2ccccc21  > 100 µM (inactive)
1      COc1ccc2c(c1)N=C(N)n1c(nc3ccccc31)S2   27.1 µM (inactive)
2  O=C(O)c1cc(/N=N/c2ccc([N+](=O)[O-])cc2)ccc1O   42.4 µM (inactive)
3   O=C(NCc1ccccc1Cl)c1c(O)c2ccccc2[nH]c1=O   34.9 µM (inactive)
4  CCC1(O)CN(CCOC)[C@H]2C[C@@H]1C(=O)c1[nH]c3ccccc3c12 (stereo not given in full)  > 100 µM (inactive)
5  O=S(=O)(N/C(=N\O)Nc1ccc(Cl)cc1)c1cc2ccccc2s1   17.1 µM (inactive)
6  N#CC12C(=O)N3C(=NC(c4ccccc4)NC3c3ccccc3)C1(C#N)C(c1ccccc1)NC1=C2CCC1 (stereo not given)  > 100 µM (inactive)
7  Cc1ccc2c(c1C)C(=O)/C(=C/c1ccccc1C(=O)O)C2   20.7 µM (inactive)
8  COc1ccc(C2c3cc4c(cc3OC(N3CCOCC3)C2C)OCO4)cc1OC (stereo not given)   7.48 µM (inactive)
9  O=C(O)[C@@H]1[C@H](C(=O)O)[C@H](C(=O)O)C[C@@H]1C(=O)O  > 100 µM (inactive)
